molecular target: T1, human CCR8 (human, UniProt P51685 1-355); test: flow blocking, PBMC CCR8+CD4+; competitor PE-AB3
T1 construct: Native CCR8 on human PBMC (CCR8+ CD3+ or CCR8+ CD4+ lymphocytes); also called chemokine (C-C motif) receptor 8
T1 sequence (P51685 whole entry): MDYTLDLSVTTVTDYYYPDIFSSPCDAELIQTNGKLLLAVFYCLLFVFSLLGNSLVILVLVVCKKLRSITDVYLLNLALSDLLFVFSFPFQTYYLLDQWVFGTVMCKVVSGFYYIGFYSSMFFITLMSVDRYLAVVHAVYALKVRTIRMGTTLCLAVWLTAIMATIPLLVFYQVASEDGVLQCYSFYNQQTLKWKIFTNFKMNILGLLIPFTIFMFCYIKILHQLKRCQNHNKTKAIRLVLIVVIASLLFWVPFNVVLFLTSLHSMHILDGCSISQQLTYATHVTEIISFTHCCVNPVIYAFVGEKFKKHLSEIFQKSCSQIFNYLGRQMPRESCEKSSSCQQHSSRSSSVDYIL
Would you please tag the item Criterion met when its % Blocking is -30% or above, and Criterion not met when it is below?

Evaluate AB14 (antibody, V domains shown, Hybridoma monoclonal; Same VH/VL entries as AB15; also called antibody 14; clone 14) VH: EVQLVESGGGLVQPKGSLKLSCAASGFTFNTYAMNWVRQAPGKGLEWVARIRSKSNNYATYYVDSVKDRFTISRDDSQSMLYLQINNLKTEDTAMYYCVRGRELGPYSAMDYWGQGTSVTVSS VL: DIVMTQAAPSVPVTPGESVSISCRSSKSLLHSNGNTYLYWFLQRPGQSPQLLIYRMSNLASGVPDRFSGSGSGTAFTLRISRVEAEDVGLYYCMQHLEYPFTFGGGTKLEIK : % Blocking at minimum -30%?
Criterion met

Answer whether % Blocking of AB8 (antibody, V domains shown, Hybridoma monoclonal; also called antibody 8; clone 8) VH: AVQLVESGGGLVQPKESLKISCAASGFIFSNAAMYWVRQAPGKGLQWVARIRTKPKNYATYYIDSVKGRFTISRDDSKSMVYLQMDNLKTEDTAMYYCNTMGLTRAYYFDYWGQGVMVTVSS VL: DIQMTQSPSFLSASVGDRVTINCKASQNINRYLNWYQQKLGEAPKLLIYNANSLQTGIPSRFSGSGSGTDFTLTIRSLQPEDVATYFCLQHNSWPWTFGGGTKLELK is greater than or equal to -30%.
Criterion met

State whether the measured % Blocking reaches -30%, counting equality as reaching it, for AB10 (antibody, V domains shown, Hybridoma monoclonal; also called antibody 10; clone 10) VH: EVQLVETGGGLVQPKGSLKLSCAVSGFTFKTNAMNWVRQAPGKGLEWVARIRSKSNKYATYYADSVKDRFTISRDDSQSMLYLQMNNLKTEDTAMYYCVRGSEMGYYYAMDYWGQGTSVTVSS VL: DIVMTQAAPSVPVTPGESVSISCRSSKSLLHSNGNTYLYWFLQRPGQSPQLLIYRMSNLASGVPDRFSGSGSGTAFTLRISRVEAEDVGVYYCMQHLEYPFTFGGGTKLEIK
Criterion not met

Does % Blocking meet or surpass -30% for AB3 (antibody, V domains shown, Hybridoma monoclonal; also called antibody 3; clone 3) VH: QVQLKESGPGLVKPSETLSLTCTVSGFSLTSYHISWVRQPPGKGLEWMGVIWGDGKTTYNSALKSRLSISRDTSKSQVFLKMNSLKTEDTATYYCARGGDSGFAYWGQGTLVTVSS VL: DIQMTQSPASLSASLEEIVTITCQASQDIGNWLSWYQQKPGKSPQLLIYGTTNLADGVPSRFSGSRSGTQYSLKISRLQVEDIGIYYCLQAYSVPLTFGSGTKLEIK ?
Criterion met

Identify whether the reported % Blocking of the following binder is -30% or greater: AB4 (antibody, V domains shown, Hybridoma monoclonal; also called antibody 4; clone 4) VH: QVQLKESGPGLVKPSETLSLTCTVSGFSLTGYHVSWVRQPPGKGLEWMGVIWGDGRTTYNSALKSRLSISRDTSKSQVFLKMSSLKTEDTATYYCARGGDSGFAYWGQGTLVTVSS VL: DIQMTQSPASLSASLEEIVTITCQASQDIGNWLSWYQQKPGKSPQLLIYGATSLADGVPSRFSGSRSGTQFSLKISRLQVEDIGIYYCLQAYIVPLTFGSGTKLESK
Criterion met

Tell me whether % Blocking is at least -30% here: AB11 (antibody, V domains shown, Hybridoma monoclonal; also called antibody 11; clone 11) VH: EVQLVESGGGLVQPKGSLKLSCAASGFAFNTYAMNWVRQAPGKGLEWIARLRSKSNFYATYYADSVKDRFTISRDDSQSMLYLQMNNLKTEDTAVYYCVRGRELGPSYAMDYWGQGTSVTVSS VL: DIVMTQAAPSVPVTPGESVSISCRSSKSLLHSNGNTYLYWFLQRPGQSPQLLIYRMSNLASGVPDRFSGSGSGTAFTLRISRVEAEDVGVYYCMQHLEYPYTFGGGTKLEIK
Criterion met

Would you say AB13 (antibody, V domains shown, Hybridoma monoclonal; also called antibody 13; clone 13) VH: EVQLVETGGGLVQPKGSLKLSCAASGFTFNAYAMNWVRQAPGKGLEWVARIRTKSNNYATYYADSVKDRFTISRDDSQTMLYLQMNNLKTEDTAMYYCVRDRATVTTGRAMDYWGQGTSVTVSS VL: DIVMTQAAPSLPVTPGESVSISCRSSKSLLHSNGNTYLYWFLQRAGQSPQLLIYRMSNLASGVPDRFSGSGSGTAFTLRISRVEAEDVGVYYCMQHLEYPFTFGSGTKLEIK shows % Blocking at minimum -30%?
Criterion met

Test whether the binder AB15 (antibody, V domains shown, Hybridoma monoclonal; Same VH/VL entries as AB14; also called antibody 15; clone 15) VH: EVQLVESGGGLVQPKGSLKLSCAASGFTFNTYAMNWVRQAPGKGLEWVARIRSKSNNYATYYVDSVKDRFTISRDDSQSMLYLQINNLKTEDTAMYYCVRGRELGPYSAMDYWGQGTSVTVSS VL: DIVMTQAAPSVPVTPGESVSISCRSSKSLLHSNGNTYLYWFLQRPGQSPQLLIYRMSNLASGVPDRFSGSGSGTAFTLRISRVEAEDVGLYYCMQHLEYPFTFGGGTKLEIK records % Blocking of -30% or higher.
Criterion not met

Is reported % Blocking greater than or equal to -30% here: AB2 (antibody, V domains shown, Hybridoma monoclonal; Same VH/VL entries as AB1; also called antibody 2; clone 2) VH: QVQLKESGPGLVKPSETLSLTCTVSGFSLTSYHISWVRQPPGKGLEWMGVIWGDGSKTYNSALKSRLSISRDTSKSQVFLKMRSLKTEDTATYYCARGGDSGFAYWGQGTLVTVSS VL: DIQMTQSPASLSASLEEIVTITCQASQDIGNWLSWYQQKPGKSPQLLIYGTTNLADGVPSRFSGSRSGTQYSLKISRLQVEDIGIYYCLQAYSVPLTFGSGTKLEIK
Criterion met

Does the reported % Blocking for AB12 (antibody, V domains shown, Hybridoma monoclonal; also called antibody 12; clone 12) VH: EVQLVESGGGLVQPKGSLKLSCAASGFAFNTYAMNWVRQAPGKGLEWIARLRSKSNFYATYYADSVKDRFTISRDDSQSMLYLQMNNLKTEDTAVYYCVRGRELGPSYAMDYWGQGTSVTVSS VL: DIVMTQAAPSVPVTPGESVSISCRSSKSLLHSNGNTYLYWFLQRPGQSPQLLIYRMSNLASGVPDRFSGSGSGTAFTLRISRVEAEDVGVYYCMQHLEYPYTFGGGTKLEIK fall at or above the -30% mark?
Criterion not met

Next, consider the following binder.
Is reported % Blocking greater than or equal to -30% here: AB1 (antibody, V domains shown, Hybridoma monoclonal (mouse or rat); Same VH/VL entries as AB2; also called antibody 1; clone 1) VH: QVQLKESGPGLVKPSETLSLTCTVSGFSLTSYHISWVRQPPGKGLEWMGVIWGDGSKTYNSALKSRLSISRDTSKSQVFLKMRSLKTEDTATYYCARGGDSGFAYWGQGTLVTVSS VL: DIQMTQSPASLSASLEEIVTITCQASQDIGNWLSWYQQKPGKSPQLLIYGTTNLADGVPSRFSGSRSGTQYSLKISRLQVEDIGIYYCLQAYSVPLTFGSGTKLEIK
Criterion met
